experiment: NCI Yeast Anticancer Drug Screen. Data for the rad50 strain (AID 155);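 further: 0% = growth of vehicle-only cultures of the same strain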; conditions: S. cerevisiae rad50 strain growth inhibition; at 50.0 µM; active compounds read high
About 79,000 compounds went through this panel and 15% of them were active in at least one assay; those are over-represented in the sample as a whole.
property-name: growth inhibition (%)
Unit % implied. Number only.

**Q:** Quick one: growth inhibition for Cc1ccc(S(=O)(=O)n2nc(C3OC(CO)C(O)C3O)c(O)c2C(N)=O)cc1 (stereo not given) ?
**A:** -36.5

**Q:** Quick one: growth inhibition for CCCCCOS(C)(=O)=O ?
**A:** -4.6

**Q:** Quick one: growth inhibition for CN(C)CCC(O)(c1ccccc1)C(O)(CCN(C)C)c1ccccc1 (stereo not given) ?
**A:** -3.15

**Q:** Quick one: growth inhibition for CNc1nc(=S)nc(-c2ccccc2)s1 ?
**A:** 11.7

**Q:** Quick one: growth inhibition for NC(=O)C(=O)N/N=C(\CC1(O)C(=O)Nc2ccccc21)c1ccc2ccccc2c1 (stereo not given) ?
**A:** 17.4

**Q:** Quick one: growth inhibition for CC(C)(C(=Nc1ccc([N+](=O)[O-])cc1)N1CCOCC1)c1ccccc1 ?
**A:** 9

**Q:** Quick one: growth inhibition for CCCCCCCCCCCCCCCCCCCCCC(C)C ?
**A:** -8

**Q:** Quick one: growth inhibition for CCOc1c(C(=O)O)cnc2ccccc12 ?
**A:** -6.2

**Q:** Quick one: growth inhibition for CCOC(=O)CCC1CCCCC1 ?
**A:** -1.1

**Q:** Quick one: growth inhibition for COc1ccc2ccc3c(OC(C)=O)ccc(CCN(C)C(C)=O)c3c2c1OC(C)=O ?
**A:** 19.1

**Q:** Quick one: growth inhibition for CCCCN(Cc1ccccc1)C(=O)NC(C)(C)C ?
**A:** 2.15

**Q:** Quick one: growth inhibition for O=C(CSc1nc(-c2ccccc2)c(-c2ccccc2)[nH]1)NNC(=S)Nc1ccccc1 ?
**A:** 6.45

**Q:** Quick one: growth inhibition for COC1(OC)CCC2C1C1CCC(OC)(OC)C21 (stereo not given) ?
**A:** 1.7

**Q:** Quick one: growth inhibition for CCC(c1ccc(CN(C)C)c(O)c1)C(CC)c1ccc(CN(C)C)c(O)c1 (stereo not given) ?
**A:** 5.7

**Q:** Quick one: growth inhibition for O=C(NC(c1ccccc1)c1cccs1)c1cccs1 (stereo not given) ?
**A:** -2.95

**Q:** Quick one: growth inhibition for Cc1c(Br)c(Br)nn1C(C)C(=O)N(C)C (stereo not given) ?
**A:** 1.75

**Q:** Quick one: growth inhibition for Nc1nc(-c2ccccc2)nc(N)c1C=O ?
**A:** -21.8

**Q:** Quick one: growth inhibition for C(=C\c1ncc(-c2ccccc2)cc1-c1ccccc1)/c1ccccc1 ?
**A:** -12.3

**Q:** Quick one: growth inhibition for CCC(=O)C(C)C(=O)CCC(=O)Nc1cc(Cl)ccc1Cl (stereo not given) ?
**A:** 21.4

**Q:** Quick one: growth inhibition for CNc1nc(N)nc(N)c1N1CCN(c2ccc(C(=O)O)cc2)CC1 ?
**A:** 13.3

**Q:** Quick one: growth inhibition for c1csc(-c2sc(-c3ccsc3)cc2Cc2ccsc2)c1 ?
**A:** -23.1

**Q:** Quick one: growth inhibition for C/C(=C\c1ccc(F)cc1)C(=O)O ?
**A:** 20.2

---

experiment: NCI Yeast Anticancer Drug Screen. Data for the cln2 rad14 strain (AID 165);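 further: 0% = growth equal to vehicle treated cultures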; details: S. cerevisiae cln2 rad14 strain, at 50.0 µM, active compounds read high
The panel holds about 79,000 compounds, 15% with a hit somewhere; the sample as a whole holds those more often.
# thresholds on growth inhibition define classes: lo (below -20%), med (-20% to below 10%), hi (10% or more)

# compound, assigned-class
records = [
    ("CCCCCCCCCCCCC1CC(=O)OC1=O (configuration not stated)", "hi"),
    ("Cc1c(S)cnc2ccccc12", "lo"),
    ("CN1CCN(C(=O)NC2CCCCC2)CC1", "lo"),
    ("O=C(COC(=O)C(CC(=O)c1ccccc1)Cc1ccccc1)c1ccc(-c2ccccc2)cc1 (configuration not stated)", "hi"),
    ("COc1cccc(-c2cc(=O)c3cccnc3[nH]2)c1", "med"),
]

**Q:** Assign a bin to CCCCCC(=O)/C=C/Sc1n[nH]c(=O)[nH]c1=O
**A:** hi

**Q:** Assign a bin to NC(=O)c1cc([N+](=O)[O-])cnc1Sc1ncccn1
**A:** hi

**Q:** Assign a bin to CC(/C=C/c1ccccc1)=N\N=C(C)\C=C\c1ccccc1
**A:** hi

**Q:** Assign a bin to NNC(=O)c1cccc2c1Oc1ccccc1S2
**A:** lo

**Q:** Assign a bin to N#CC1=CNc2ccccc2N=C1N
**A:** med

**Q:** Assign a bin to CCSC(=S)S(=O)(=O)c1ccc(C)cc1
**A:** hi

**Q:** Assign a bin to COc1ccc(/C(Cl)=C(\C=O)c2ccc(Cl)c(Cl)c2)cc1OC
**A:** lo

**Q:** Assign a bin to CC(=O)N(C)N=Nc1ccc(Cl)cc1
**A:** med

**Q:** Assign a bin to CNC(=O)Nc1ccc(C(=O)O)cc1
**A:** lo

---

assay: NCI Yeast Anticancer Drug Screen. Data for the mec2-1 strain (AID 157); settings: S. cerevisiae mec2-1 strain, at 50.0 µM, active compounds read high
The panel holds about 79,000 compounds, 15% with a hit somewhere; the sample as a whole holds those more often.
property-name: growth inhibition (%)
Unit % implied. Number only.

// known answers, use as guide
# compound, growth inhibition [%]
data = [
    ("CC(=O)OCC(CO)(CO)COC(C)=O", 8.65),
    ("C#CCN(Cc1ccc2nc(-c3ccccc3)c(N)nc2c1)c1cc(OC)c(OC)c(OC)c1", 5.25),
    ("Cc1cc2nc(C(C)C(=O)c3ccc(Cl)cc3)c(=O)[nH]c2cc1C (stereo unspecified)", -12.7),
]

**Q:** Quick one: growth inhibition for CC(C)n1cnc2c(=O)[nH]c(=O)[nH]c21 ?
**A:** -4.55

**Q:** Quick one: growth inhibition for Cc1ccc(S(=O)(=O)OCC(c2ccccc2)C(F)(F)F)cc1 (stereo unspecified) ?
**A:** -14.2

**Q:** Quick one: growth inhibition for Cc1ccc(Cl)cc1NC(=S)N(C)C ?
**A:** 16.1

---

assay: NCI Yeast Anticancer Drug Screen. Data for the sgs1 mgt1 strain (AID 161);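 further: 0% = growth of cultures given vehicle only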; conditions: S. cerevisiae sgs1 mgt1 strain, at 50.0 µM, active compounds read high
About 79,000 compounds went through this panel and 15% of them were active in at least one assay; those are over-represented in the sample as a whole.
property-name: growth inhibition (%)
Unit % implied. Number only.

// known answers, use as guide
# molecule, unit-info, growth inhibition
rows = [
    ("COc1cc(OC)c2c(c1)OC(c1ccccc1)CC2=O (centres undefined)", "%", -18.2),
    ("CC(=O)Nc1c(C)cc(S(=O)(=O)O)cc1C", "%", -8.65),
    ("Cn1ncc2c(=S)[nH]c(=O)[nH]c21", "%", -1.1),
    ("CC(=O)Nc1ccccc1-c1nc2cccnc2[nH]c1=O", "%", 2.65),
    ("CC(C)CC(NC(=O)CN)C(=O)O (centres undefined)", "%", -1.1),
]

**Q:** Quick one: growth inhibition for CCN(CC)C(=O)CCC(=O)O ?
**A:** -14.7

**Q:** Quick one: growth inhibition for CCOc1nc(=O)n(CC(=O)c2ccc(Cl)s2)cc1F ?
**A:** -0.8

**Q:** Quick one: growth inhibition for O=CN/C=C/c1ccccc1O ?
**A:** 4.1

**Q:** Quick one: growth inhibition for COc1ccc(NCc2cnc3nc(N)nc(N)c3c2C)cc1 ?
**A:** 16.6

**Q:** Quick one: growth inhibition for C1COC2(C1)CCCO2 ?
**A:** -27.2

**Q:** Quick one: growth inhibition for CC1CCCC(C)(c2ccccc2)/C1=N\Nc1ccc([N+](=O)[O-])cc1[N+](=O)[O-] (centres undefined) ?
**A:** 9.65

**Q:** Quick one: growth inhibition for CCCC(CC)(CC)CO ?
**A:** -16.4

**Q:** Quick one: growth inhibition for CC(=O)CCCC(=O)O ?
**A:** -24.5

**Q:** Quick one: growth inhibition for CCCCOc1cc(C(=O)O)ccc1[N+](=O)[O-] ?
**A:** -10.3

---

assay: NCI Yeast Anticancer Drug Screen. Data for the mlh1 rad18 strain (AID 175); settings: S. cerevisiae mlh1 rad18 strain growth inhibition; at 50.0 µM
Compounds without any hit were thinned out: in the full panel of roughly 79,000, 15% have a hit. The source made the active and inactive calls. Cut-off read from the data, not from the text of the source: active = growth inhibition above about 70%; inactive = the rest.
Hi! Could you answer with just one of these? active, inactive

These recorded examples may help you get a feel for the data.
# compound, assigned-class
records = [
    ("COc1cc(CCCCC(=O)O)ccc1OC(=O)c1ccccc1", "inactive"),
    ("CC(=O)Nc1ccc(S(=O)(=O)Nc2c(-c3ccccc3)[nH]c(C)c2C(C)=O)cc1", "inactive"),
]

**Q:** Dear all, I need the recorded test outcome for O=C1c2ccccc2C(=O)N1CCc1ncc[nH]1 , thank you.
**A:** inactive

**Q:** Dear all, I need the recorded test outcome for CC(C)(C)OC(=O)CC(O)c1ccccc1 (stereo not given) , thank you.
**A:** inactive

**Q:** Dear all, I need the recorded test outcome for COc1ccc(C2=CCCCc3cc(O)c(OC)cc32)cc1 , thank you.
**A:** active

**Q:** Dear all, I need the recorded test outcome for CCCCC(O)(CCCC)C(C)(C)C , thank you.
**A:** inactive

**Q:** Dear all, I need the recorded test outcome for CCOC(=O)CCCC(=O)N(CC(=O)OCC)Cc1ccccc1 , thank you.
**A:** inactive

**Q:** Dear all, I need the recorded test outcome for COC1OC(COC(=O)c2ccc([N+](=O)[O-])cc2)C(O)C1SC#N (stereo not given) , thank you.
**A:** inactive

**Q:** Dear all, I need the recorded test outcome for COc1ccc(C2C(=O)C(Cl)N2Nc2nc(C)cc(=O)[nH]2)cc1OC (stereo not given) , thank you.
**A:** inactive

**Q:** Dear all, I need the recorded test outcome for c1cnc2c(c1)-n1cccc1C1(CCOCC1)NN2 , thank you.
**A:** inactive

**Q:** Dear all, I need the recorded test outcome for CCOC(=O)c1c(C)c2c(n1C)CCC(C#N)C2=O (stereo not given) , thank you.
**A:** inactive

**Q:** Dear all, I need the recorded test outcome for CCOC(=O)C(CCCOC1CCCCO1)(C(=O)OCC)c1ccccc1 (stereo not given) , thank you.
**A:** inactive

**Q:** Dear all, I need the recorded test outcome for CC1CC[P+](C)(c2ccccc2)c2ccccc21 (stereo not given) , thank you.
**A:** inactive

**Q:** Dear all, I need the recorded test outcome for Cc1ccc(NCC(O)CN2CCOCC2)cc1 (stereo not given) , thank you.
**A:** inactive

**Q:** Dear all, I need the recorded test outcome for O=C(CCCSCCCC(=O)N/N=C/c1ccccc1O)N/N=C\c1ccccc1O , thank you.
**A:** inactive

**Q:** Dear all, I need the recorded test outcome for CNC(=S)NNc1ncnc2c1ncn2-c1ccc(C)cc1 , thank you.
**A:** inactive

**Q:** Dear all, I need the recorded test outcome for COC(=O)NC1(NC(=O)OC)NC(=O)c2cc(OC)c(OC)cc2N1 , thank you.
**A:** inactive

**Q:** Dear all, I need the recorded test outcome for O=C(c1ccccc1)c1ccccc1O , thank you.
**A:** inactive

**Q:** Dear all, I need the recorded test outcome for COc1cc2nccnc2cc1OC , thank you.
**A:** inactive

**Q:** Dear all, I need the recorded test outcome for Cc1ccc(C(=N)c2ccccc2Cc2ccccc2)cc1 , thank you.
**A:** inactive

**Q:** Dear all, I need the recorded test outcome for O=C(Nc1ccccc1)C1CC2C=CC1C2 (stereo not given) , thank you.
**A:** inactive

**Q:** Dear all, I need the recorded test outcome for COc1ccccc1N=Nc1c(O)n(-c2ccccc2C)c(=S)n(-c2ccccc2OC)c1=O , thank you.
**A:** inactive

**Q:** Dear all, I need the recorded test outcome for CCc1nnc2n1N=C(c1ccc(-c3ccccc3)cc1)CS2 , thank you.
**A:** inactive

**Q:** Dear all, I need the recorded test outcome for COc1ccc(NC(=S)NNC(=O)c2nsc3ccccc23)cc1 , thank you.
**A:** inactive

**Q:** Dear all, I need the recorded test outcome for CCOC(=O)C1CC=CCC1C(=O)OCC (stereo not given) , thank you.
**A:** inactive

**Q:** Dear all, I need the recorded test outcome for CCCC(CCC(C)=O)[N+](=O)[O-] (stereo not given) , thank you.
**A:** inactive

**Q:** Dear all, I need the recorded test outcome for Cc1[nH]nc(-c2ccon2)c1N , thank you.
**A:** inactive

**Q:** Dear all, I need the recorded test outcome for CC(=O)Nc1ccc2c(c1)Cc1c(F)cc(F)cc1-2 , thank you.
**A:** inactive

**Q:** Dear all, I need the recorded test outcome for Cc1ccc(N=NC(=O)NNc2ccc(C)c([N+](=O)[O-])c2)cc1[N+](=O)[O-] , thank you.
**A:** inactive
